# assayed.system: purified human, His-tagged PRC2 complex (Homo sapiens, UniProt O75530+Q15910)
# Sequence (Q15910 whole entry): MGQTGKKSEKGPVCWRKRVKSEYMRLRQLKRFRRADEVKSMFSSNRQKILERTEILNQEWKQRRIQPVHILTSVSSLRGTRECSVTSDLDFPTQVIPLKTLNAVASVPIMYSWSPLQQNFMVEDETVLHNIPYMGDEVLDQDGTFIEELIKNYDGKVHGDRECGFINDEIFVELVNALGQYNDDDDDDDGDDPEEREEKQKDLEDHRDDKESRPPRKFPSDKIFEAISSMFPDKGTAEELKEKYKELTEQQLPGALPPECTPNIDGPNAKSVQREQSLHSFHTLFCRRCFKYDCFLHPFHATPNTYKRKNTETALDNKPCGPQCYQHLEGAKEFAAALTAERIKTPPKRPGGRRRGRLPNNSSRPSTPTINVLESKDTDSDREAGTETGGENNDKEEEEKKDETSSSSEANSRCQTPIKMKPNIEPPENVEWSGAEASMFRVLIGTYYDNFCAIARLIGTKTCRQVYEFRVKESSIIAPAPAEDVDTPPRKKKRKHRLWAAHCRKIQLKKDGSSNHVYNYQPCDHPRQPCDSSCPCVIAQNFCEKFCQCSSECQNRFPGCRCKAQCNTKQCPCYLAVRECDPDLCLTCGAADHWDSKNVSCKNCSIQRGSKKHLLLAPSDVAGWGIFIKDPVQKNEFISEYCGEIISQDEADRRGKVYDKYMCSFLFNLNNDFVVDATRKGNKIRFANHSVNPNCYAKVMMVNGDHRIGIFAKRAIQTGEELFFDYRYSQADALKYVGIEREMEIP
# Sequence (O75530 whole entry): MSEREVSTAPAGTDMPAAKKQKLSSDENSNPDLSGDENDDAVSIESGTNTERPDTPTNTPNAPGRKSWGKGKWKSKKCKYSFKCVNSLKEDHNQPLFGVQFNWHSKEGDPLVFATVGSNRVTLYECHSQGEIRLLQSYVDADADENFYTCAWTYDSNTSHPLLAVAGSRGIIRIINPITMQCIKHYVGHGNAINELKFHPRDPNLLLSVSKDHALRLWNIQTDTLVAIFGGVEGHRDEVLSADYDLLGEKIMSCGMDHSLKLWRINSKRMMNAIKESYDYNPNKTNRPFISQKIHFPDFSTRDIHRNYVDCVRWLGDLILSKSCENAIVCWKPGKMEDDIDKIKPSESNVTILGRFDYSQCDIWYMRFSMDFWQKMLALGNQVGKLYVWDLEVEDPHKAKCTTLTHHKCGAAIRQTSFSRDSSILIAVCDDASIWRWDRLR
# Sequence (Q15022 whole entry partner): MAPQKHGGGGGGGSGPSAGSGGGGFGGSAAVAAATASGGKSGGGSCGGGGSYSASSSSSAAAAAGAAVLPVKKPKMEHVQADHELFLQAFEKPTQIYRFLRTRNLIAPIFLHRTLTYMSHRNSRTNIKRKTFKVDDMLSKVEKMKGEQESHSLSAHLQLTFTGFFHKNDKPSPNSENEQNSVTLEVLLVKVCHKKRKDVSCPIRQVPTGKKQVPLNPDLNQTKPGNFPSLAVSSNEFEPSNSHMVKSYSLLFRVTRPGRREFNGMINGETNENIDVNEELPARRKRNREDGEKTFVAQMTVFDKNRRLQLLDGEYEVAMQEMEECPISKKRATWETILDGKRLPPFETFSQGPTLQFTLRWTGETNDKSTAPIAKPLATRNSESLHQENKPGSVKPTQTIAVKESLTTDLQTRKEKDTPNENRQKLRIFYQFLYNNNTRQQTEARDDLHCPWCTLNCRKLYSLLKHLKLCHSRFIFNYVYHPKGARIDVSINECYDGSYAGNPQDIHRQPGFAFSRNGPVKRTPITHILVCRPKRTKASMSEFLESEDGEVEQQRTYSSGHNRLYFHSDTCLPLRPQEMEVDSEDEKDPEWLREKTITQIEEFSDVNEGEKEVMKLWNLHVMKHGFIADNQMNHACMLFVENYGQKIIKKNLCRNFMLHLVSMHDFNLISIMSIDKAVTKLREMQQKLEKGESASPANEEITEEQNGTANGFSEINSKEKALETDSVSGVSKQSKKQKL
# Sequence (Q6ZN18 whole entry partner): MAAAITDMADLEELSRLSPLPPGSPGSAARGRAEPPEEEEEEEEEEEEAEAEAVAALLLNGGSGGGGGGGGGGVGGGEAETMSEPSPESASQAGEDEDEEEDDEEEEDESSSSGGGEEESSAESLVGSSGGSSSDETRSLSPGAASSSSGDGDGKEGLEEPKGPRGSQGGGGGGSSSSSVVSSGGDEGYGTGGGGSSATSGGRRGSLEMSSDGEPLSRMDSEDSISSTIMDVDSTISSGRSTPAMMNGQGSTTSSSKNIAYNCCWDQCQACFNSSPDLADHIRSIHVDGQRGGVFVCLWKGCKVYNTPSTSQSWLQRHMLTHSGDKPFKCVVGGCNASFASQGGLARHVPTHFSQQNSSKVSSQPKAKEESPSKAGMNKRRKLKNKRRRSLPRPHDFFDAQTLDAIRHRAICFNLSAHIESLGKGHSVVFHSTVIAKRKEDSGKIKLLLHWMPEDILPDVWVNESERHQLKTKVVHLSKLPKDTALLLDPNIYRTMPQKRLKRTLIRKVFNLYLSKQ
# Sequence (Q09028 whole entry partner): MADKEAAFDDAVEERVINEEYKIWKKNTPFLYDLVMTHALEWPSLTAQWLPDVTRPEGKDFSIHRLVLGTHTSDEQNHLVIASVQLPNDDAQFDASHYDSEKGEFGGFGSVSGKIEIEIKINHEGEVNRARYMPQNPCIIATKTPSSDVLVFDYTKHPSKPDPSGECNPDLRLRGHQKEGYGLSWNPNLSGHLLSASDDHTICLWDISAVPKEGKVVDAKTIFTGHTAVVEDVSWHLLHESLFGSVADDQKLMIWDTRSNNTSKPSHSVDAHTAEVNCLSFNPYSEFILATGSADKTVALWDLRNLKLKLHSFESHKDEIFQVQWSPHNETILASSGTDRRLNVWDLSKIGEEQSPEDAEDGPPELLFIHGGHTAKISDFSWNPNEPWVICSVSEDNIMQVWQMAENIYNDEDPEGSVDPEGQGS
# experiment.description: Hot Spot HMT assay: inhibition of PRC2 enzymatic activity (transfer of tritiated methyl from SAM to core histone, filter binding)
# Format: biochemical
# test.settings: Inhibition of PRC2-mediated enzymatic activity; 10 nM PRC2 complex, 0.05 mg/ml core histone H3, 1 uM 3H-SAM, 1 hr at 30°C

compound	assayed.system	IC50
Cn1nccc(-c2cnc(NCc3c(F)ccc4c3CCO4)n3cc(C#N)nc23)c1=O	purified human, His-tagged PRC2 complex (Homo sapiens, UniProt O75530+Q15910)	100 to 500 nM
N#Cc1cn2c(NCc3c(F)ccc4c3CCO4)ncc(-c3ccnn3CCO)c2n1	purified human, His-tagged PRC2 complex (Homo sapiens, UniProt O75530+Q15910)	100 to 500 nM
Cc1nn(C(C)C)c(C)c1-c1cnc(NCc2c(F)ccc3c2CCO3)n2cc(C#N)nc12	purified human, His-tagged PRC2 complex (Homo sapiens, UniProt O75530+Q15910)	100 to 500 nM
CN(C)CCCn1cc(-c2cnc(NCc3c(F)ccc4c3CCO4)n3cc(C#N)nc23)cn1	purified human, His-tagged PRC2 complex (Homo sapiens, UniProt O75530+Q15910)	100 to 500 nM
CN(C)CCn1nccc1-c1cnc(NCc2c(F)ccc3c2CCO3)n2cc(C#N)nc12	purified human, His-tagged PRC2 complex (Homo sapiens, UniProt O75530+Q15910)	< 100 nM
Cc1cc(-c2cnc(NCc3cccc4c3OCO4)n3cc(C#N)nc23)n(C)n1	purified human, His-tagged PRC2 complex (Homo sapiens, UniProt O75530+Q15910)	> 500 nM
N#Cc1cn2c(NCc3c(F)ccc4c3CCO4)ncc(-c3cnn(C4CCCCO4)c3)c2n1 (centres unmarked)	purified human, His-tagged PRC2 complex (Homo sapiens, UniProt O75530+Q15910)	< 100 nM
N#Cc1cn2c(NCc3c(F)ccc4c3CCO4)ncc(-c3ccc([C@@H]4CCCN4)cc3)c2n1	purified human, His-tagged PRC2 complex (Homo sapiens, UniProt O75530+Q15910)	< 100 nM
COC(=O)c1ccc(-c2cnc(NCc3c(F)ccc4c3CCO4)n3cc(C#N)nc23)cn1	purified human, His-tagged PRC2 complex (Homo sapiens, UniProt O75530+Q15910)	< 100 nM
N#Cc1cn2c(NCc3c(F)ccc4c3CCO4)ncc(-c3ccc(-c4nnn[nH]4)cc3)c2n1	purified human, His-tagged PRC2 complex (Homo sapiens, UniProt O75530+Q15910)	< 100 nM
COCCOc1ccc(-c2cnc(NCc3c(F)ccc4c3CCO4)n3cc(C#N)nc23)cn1	purified human, His-tagged PRC2 complex (Homo sapiens, UniProt O75530+Q15910)	100 to 500 nM
CN(C)C(=O)c1ccc(-c2cnc(NCc3c(F)ccc4c3CCO4)n3cc(C#N)nc23)cc1	purified human, His-tagged PRC2 complex (Homo sapiens, UniProt O75530+Q15910)	< 100 nM
Cc1nn(C(C)C)cc1-c1cnc(NCc2c(F)ccc3c2CCO3)n2cc(C(=O)O)nc12	purified human, His-tagged PRC2 complex (Homo sapiens, UniProt O75530+Q15910)	< 100 nM
N#Cc1cn2c(NCc3c(F)ccc4c3CCO4)ncc(-c3ccc(N4CCCCC4)nc3)c2n1	purified human, His-tagged PRC2 complex (Homo sapiens, UniProt O75530+Q15910)	< 100 nM
CN(C)Cc1ncc(-c2cnc(NCc3c(F)ccc4c3CCO4)n3cc(C#N)nc23)cn1	purified human, His-tagged PRC2 complex (Homo sapiens, UniProt O75530+Q15910)	< 100 nM
CN(C)C(=O)c1ccc(-c2cnc(NCc3c(F)ccc4c3CCO4)n3cc(C#N)nc23)c(Cl)c1	purified human, His-tagged PRC2 complex (Homo sapiens, UniProt O75530+Q15910)	< 100 nM
CN1CCOCC1c1ccc(-c2cnc(NCc3c(F)ccc4c3CCO4)n3cc(C#N)nc23)cc1 (centres unmarked)	purified human, His-tagged PRC2 complex (Homo sapiens, UniProt O75530+Q15910)	< 100 nM
CNCc1ccc(-c2cnc(NCc3c(F)ccc4c3CCO4)n3cc(C#N)nc23)c(C)c1	purified human, His-tagged PRC2 complex (Homo sapiens, UniProt O75530+Q15910)	100 to 500 nM
N#Cc1cn2c(NCc3c(F)ccc4c3CCO4)ncc(-c3ccc([C@H]4CCCN4)cc3)c2n1	purified human, His-tagged PRC2 complex (Homo sapiens, UniProt O75530+Q15910)	100 to 500 nM
CN1CCN(C(=O)c2ccc(-c3cnc(NCc4c(F)ccc5c4CCO5)n4cc(C#N)nc34)cc2)CC1	purified human, His-tagged PRC2 complex (Homo sapiens, UniProt O75530+Q15910)	< 100 nM
COc1ccc(-c2cnc(NCc3c(F)ccc4c3CCO4)n3cc(C#N)nc23)cn1	purified human, His-tagged PRC2 complex (Homo sapiens, UniProt O75530+Q15910)	< 100 nM
Cc1ncc(F)cc1-c1cnc(NCc2c(F)ccc3c2CCO3)n2cc(C#N)nc12	purified human, His-tagged PRC2 complex (Homo sapiens, UniProt O75530+Q15910)	< 100 nM
N#Cc1cn2c(NCc3c(F)ccc4c3CCO4)ncc(-c3cnn(CC4CCOC4)c3)c2n1 (centres unmarked)	purified human, His-tagged PRC2 complex (Homo sapiens, UniProt O75530+Q15910)	100 to 500 nM
Cc1nc(C2CC2)ncc1-c1cnc(NCc2c(F)ccc3c2CCO3)n2cc(C#N)nc12	purified human, His-tagged PRC2 complex (Homo sapiens, UniProt O75530+Q15910)	100 to 500 nM
COc1cc(C)c(-c2cnc(NCc3c(F)ccc4c3CCO4)n3cc(C#N)nc23)cn1	purified human, His-tagged PRC2 complex (Homo sapiens, UniProt O75530+Q15910)	100 to 500 nM
COC(=O)c1cc(-c2cnc(NCc3c(F)ccc4c3CCO4)n3cc(C#N)nc23)n(C)n1	purified human, His-tagged PRC2 complex (Homo sapiens, UniProt O75530+Q15910)	< 100 nM
